Molecular target: T1, CDK9/Cyclin T1 (Homo sapiens, UniProt P50750)
T1 construct: purchased ProQinase GmbH (Freiburg, Germany)
T1 sequence (P50750 whole entry): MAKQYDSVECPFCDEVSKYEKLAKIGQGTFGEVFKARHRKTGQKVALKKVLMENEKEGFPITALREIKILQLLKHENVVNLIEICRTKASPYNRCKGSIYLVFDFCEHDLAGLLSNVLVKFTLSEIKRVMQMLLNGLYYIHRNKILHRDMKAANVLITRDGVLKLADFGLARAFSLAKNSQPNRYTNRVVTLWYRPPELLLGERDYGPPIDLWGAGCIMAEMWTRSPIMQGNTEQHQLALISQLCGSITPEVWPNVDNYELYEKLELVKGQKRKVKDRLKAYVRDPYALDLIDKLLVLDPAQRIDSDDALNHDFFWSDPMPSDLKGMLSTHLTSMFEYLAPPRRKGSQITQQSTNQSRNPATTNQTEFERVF
T1 sequence (O60563 whole entry partner): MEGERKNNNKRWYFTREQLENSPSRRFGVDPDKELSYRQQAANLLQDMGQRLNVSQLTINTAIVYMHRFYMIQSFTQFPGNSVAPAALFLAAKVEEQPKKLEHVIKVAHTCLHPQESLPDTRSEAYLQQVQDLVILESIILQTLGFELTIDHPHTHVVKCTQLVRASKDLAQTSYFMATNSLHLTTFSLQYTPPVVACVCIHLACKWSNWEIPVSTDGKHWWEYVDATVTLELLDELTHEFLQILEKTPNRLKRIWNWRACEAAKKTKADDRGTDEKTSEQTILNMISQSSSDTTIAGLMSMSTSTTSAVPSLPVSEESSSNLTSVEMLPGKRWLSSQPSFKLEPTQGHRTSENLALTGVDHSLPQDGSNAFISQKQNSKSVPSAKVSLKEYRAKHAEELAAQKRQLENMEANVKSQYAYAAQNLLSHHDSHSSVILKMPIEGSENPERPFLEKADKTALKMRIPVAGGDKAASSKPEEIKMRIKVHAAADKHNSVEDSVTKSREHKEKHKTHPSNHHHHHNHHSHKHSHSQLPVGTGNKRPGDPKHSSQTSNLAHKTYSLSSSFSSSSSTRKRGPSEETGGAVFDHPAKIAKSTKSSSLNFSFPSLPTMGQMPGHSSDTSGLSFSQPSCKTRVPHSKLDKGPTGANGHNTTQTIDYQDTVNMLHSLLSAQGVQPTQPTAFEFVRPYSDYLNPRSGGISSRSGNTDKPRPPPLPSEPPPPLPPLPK
Test: Kinase inhibition assay, recombinant kinase, [γ-33P]ATP
Format: biochemical
Settings: 100 nM; read-out: Residual kinase activity, CDK9
property: remaining activity at 0.1 µM (%)
Express the result in % but write the number alone.

Worked examples, 5 molecules total:
Nc1ccccc1-c1ccc(CNc2nc(NC3CCC(N)CC3)nc3c2ncn3C2CCCC2)cn1 (stereo not shown)    93.4
NC1CCC(Nc2nc(NCc3ccc(-c4cccs4)nc3)c3ncn(C4CCCC4)c3n2)CC1 (stereo not shown)    19.6
CC(C)(O)CNc1nc(NCc2ccc(-c3ccco3)nc2)c2ncn(C3CCCC3)c2n1    52.7
OC1CCC(Nc2nc(NCc3ccc(-c4ccco4)nc3)c3ncn(C4CCCC4)c3n2)CC1 (stereo not shown)    49
NC1CCC(Nc2nc(NCc3ccc(-c4cccc(F)c4)nc3)c3ncn(C4CCCC4)c3n2)CC1 (stereo not shown)    26.6

Returns the measured remaining activity at 0.1 µM for the input molecule. Input: NC1CCC(Nc2nc(NCc3ccc(-c4ccccc4O)nc3)c3ncn(C4CCCC4)c3n2)CC1 (stereo not shown) 21.1

// query: COc1ccccc1-c1ccc(CNc2nc(NC3CCC(N)CC3)nc3c2ncn3C2CCCC2)cn1 (stereo not shown) 32.6

Next record, please: NC1CCC(Nc2nc(NCc3ccc(-c4ccoc4)nc3)c3ncn(C4CCCC4)c3n2)CC1 (stereo not shown) 15.4

Try this molecule too: NC1CCC(Nc2nc(NCc3ccc(-c4ccco4)nc3)c3ncn(C4CCCC4)c3n2)CC1 (stereo not shown) 22.3

Continue with NC1CCC(Nc2nc(NCc3ccc(-c4ccsc4)nc3)c3ncn(C4CCCC4)c3n2)CC1 (stereo not shown) 32.8

====

Test system: Hep3B
Test: Determination of long-term chemosensitivity (MTT)
Type: cell-based
Conditions: Homo sapiens, long-term exposure at ½ IC50, read-out: IC50 for BP14, Hep3B
property: pIC50
Field pIC50 (float): negative decimal logarithm of the concentration in molar.

Need pIC50, item NC1CCC(Nc2nc(NCc3ccc(-c4ccco4)nc3)c3ncn(C4CCCC4)c3n2)CC1 (stereo not shown) 6.10

====

Molecular target: CDK7/cyclin H/MAT1 (Homo sapiens)
Construct: purchased ProQinase GmbH (Freiburg, Germany)
Assay: Kinase inhibition assay, recombinant kinase, [γ-33P]ATP
Format: biochemical
Conditions: 100 nM; read-out: Residual kinase activity, CDK7
property: remaining activity at 0.1 µM (%)
Please respond with the number in % and leave the unit unwritten.

NC1CCC(Nc2nc(NCc3ccc(-c4ccsc4)nc3)c3ncn(C4CCCC4)c3n2)CC1 (stereo not shown) [BP35]    64.1

Give the measured remaining activity at 0.1 µM of NC1CCC(Nc2nc(NCc3ccc(-c4ccccc4O)nc3)c3ncn(C4CCCC4)c3n2)CC1 (stereo not shown) [BP20] . 48

NC1CCC(Nc2nc(NCc3ccc(-c4ccco4)nc3)c3ncn(C4CCCC4)c3n2)CC1 (stereo not shown) [BP14] , same question. 54.8

Next entry: NC1CCC(Nc2nc(NCc3ccc(-c4ccoc4)nc3)c3ncn(C4CCCC4)c3n2)CC1 (stereo not shown) [BP36] 49.1

How about this compound: NC1CCC(Nc2nc(NCc3ccc(-c4cccc(F)c4)nc3)c3ncn(C4CCCC4)c3n2)CC1 (stereo not shown) [BP19] 55

// next record OC1CCC(Nc2nc(NCc3ccc(-c4ccco4)nc3)c3ncn(C4CCCC4)c3n2)CC1 (stereo not shown) [BP21] 72

For CC(C)(O)CNc1nc(NCc2ccc(-c3ccco3)nc2)c2ncn(C3CCCC3)c2n1 [BP117] then? 76.3

Next: NC1CCC(Nc2nc(NCc3ccc(-c4cccs4)nc3)c3ncn(C4CCCC4)c3n2)CC1 (stereo not shown) [BP30] 47.7

What do you get for Nc1ccccc1-c1ccc(CNc2nc(NC3CCC(N)CC3)nc3c2ncn3C2CCCC2)cn1 (stereo not shown) [BP22] ? 70

Record: COc1ccccc1-c1ccc(CNc2nc(NC3CCC(N)CC3)nc3c2ncn3C2CCCC2)cn1 (stereo not shown) [BP18] 54.1

====

Target: CDK7/cyclin H/MAT1 (Homo sapiens, UniProt P50613)
Construct: purchased ProQinase GmbH (Freiburg, Germany)
Sequence (P50613 whole entry): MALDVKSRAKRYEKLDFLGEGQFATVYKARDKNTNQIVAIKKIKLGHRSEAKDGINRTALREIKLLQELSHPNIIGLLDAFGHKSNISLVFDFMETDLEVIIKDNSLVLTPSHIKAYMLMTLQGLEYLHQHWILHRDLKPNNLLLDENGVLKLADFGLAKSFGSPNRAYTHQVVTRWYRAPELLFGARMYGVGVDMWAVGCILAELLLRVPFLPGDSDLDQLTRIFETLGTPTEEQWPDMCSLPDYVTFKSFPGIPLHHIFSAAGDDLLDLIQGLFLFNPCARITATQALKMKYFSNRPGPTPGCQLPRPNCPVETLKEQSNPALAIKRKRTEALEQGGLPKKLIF
Sequence (P51946 whole entry partner): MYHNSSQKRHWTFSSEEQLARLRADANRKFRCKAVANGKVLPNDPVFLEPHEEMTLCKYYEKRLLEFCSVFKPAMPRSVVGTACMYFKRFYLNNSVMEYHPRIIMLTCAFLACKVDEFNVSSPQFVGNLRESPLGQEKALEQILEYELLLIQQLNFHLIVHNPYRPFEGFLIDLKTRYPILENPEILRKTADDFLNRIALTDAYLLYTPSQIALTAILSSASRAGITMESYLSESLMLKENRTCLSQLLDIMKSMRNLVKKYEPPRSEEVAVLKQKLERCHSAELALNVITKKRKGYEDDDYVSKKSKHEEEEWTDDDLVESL
Sequence (P51948 whole entry partner): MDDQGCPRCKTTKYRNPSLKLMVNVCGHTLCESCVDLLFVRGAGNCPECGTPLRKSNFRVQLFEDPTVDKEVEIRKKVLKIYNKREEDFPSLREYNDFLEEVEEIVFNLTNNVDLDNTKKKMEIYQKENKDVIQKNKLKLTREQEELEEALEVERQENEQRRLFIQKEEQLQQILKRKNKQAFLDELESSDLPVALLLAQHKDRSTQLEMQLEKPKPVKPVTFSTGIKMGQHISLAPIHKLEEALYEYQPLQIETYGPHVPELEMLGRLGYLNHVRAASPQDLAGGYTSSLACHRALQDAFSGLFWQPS
Assay: Kinase inhibition assay, recombinant kinase, [γ-33P]ATP
Type: biochemical
Details: 1000 nM; read-out: Residual kinase activity, CDK7
property: remaining activity at 1 µM
Lab note: write values as number then unit, every time.

NC1CCC(Nc2nc(NCc3ccc(-c4cccs4)nc3)c3ncn(C4CCCC4)c3n2)CC1 (stereo not shown)    16.5%
COc1ccccc1-c1ccc(CNc2nc(NC3CCC(N)CC3)nc3c2ncn3C2CCCC2)cn1 (stereo not shown)    24.1%
NC1CCC(Nc2nc(NCc3ccc(-c4cccc(F)c4)nc3)c3ncn(C4CCCC4)c3n2)CC1 (stereo not shown)    25%
NC1CCC(Nc2nc(NCc3ccc(-c4ccco4)nc3)c3ncn(C4CCCC4)c3n2)CC1 (stereo not shown)    23.9%
CC(C)(O)CNc1nc(NCc2ccc(-c3ccco3)nc2)c2ncn(C3CCCC3)c2n1    68.3%

Please look at the following compound next.
I am curious: what remaining activity at 1 µM value has been reported for Nc1ccccc1-c1ccc(CNc2nc(NC3CCC(N)CC3)nc3c2ncn3C2CCCC2)cn1 (stereo not shown) ? 93.9%

====

Listed here are compounds together with their documented remaining activity at 0.1 µM.
Target: T1, CDK5/p35 (Homo sapiens, UniProt Q00535)
T1 construct: purchased ProQinase GmbH (Freiburg, Germany)
T1 sequence (Q00535 whole entry): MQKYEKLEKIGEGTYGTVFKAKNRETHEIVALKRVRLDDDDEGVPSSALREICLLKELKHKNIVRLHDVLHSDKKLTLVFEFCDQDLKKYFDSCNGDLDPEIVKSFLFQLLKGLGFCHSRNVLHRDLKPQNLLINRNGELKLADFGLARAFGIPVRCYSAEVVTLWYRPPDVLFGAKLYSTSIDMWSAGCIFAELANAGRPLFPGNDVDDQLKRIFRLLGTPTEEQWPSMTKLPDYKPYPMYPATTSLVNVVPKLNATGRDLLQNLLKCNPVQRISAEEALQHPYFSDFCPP
T1 sequence (Q15078 whole entry partner): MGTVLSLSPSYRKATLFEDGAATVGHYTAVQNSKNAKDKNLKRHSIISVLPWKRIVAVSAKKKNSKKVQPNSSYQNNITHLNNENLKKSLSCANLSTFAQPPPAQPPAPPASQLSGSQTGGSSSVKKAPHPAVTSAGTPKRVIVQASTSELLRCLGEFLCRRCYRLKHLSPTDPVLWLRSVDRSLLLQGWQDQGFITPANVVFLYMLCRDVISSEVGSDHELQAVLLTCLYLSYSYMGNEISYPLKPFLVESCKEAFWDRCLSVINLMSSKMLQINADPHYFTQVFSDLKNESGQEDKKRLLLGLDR
Experiment: Kinase inhibition assay, recombinant kinase, [γ-33P]ATP
Assay type: biochemical
Conditions: 100 nM; read-out: Residual kinase activity, CDK5
From the text: CDK2/Cyclin E kinase was produced in Sf9 insect cells via baculoviral infection and purified on a NiNTA column (Qiagen). CDK5/p35, CDK7Cyclin H/MAT1 and CDK9/Cyclin T1 was purchased from ProQinase GmbH. […]
Field note: include the unit after the figure.

COc1ccccc1-c1ccc(CNc2nc(NC3CCC(N)CC3)nc3c2ncn3C2CCCC2)cn1 (stereo not shown)    49.2%

I'd like to know its remaining activity at 0.1 µM. The compound in question is NC1CCC(Nc2nc(NCc3ccc(-c4cccs4)nc3)c3ncn(C4CCCC4)c3n2)CC1 (stereo not shown) 26%

# iterate: NC1CCC(Nc2nc(NCc3ccc(-c4ccco4)nc3)c3ncn(C4CCCC4)c3n2)CC1 (stereo not shown) 37.8%

Same question, NC1CCC(Nc2nc(NCc3ccc(-c4ccsc4)nc3)c3ncn(C4CCCC4)c3n2)CC1 (stereo not shown) this time 65%

====

# maps each entry to its Relative caspase-3/7 activity in PLC/PRF/5 cell line
Test system: caspase-3/7 activity in PLC/PRF/5 cell line
Assay: One-step cellular caspase-3/7 activity assay
Format: cell-based, human
Conditions: compound concentration 80 nM; 24 hours incubation; relative to 0 nM = 1.00
Form rule: numeric answer, no unit written next to it.

Here are 5 compounds together with their reported answers.
COc1ccccc1-c1ccc(CNc2nc(NC3CCC(N)CC3)nc3c2ncn3C2CCCC2)cc1 (stereo not shown)    0.73
NC1CCC(Nc2nc(NCc3ccc(-c4ccsc4)nc3)c3ncn(C4CCCC4)c3n2)CC1 (stereo not shown)    2.37
Nc1ccccc1-c1ccc(CNc2nc(NC3CCC(N)CC3)nc3c2ncn3C2CCCC2)cc1 (stereo not shown)    1.00
NC1CCC(Nc2nc(NCc3ccc(-c4ccoc4)cc3)c3ncn(C4CCCC4)c3n2)CC1 (stereo not shown)    1.37
NC1CCC(Nc2nc(NCc3ccc(-c4cccs4)cc3)c3ncn(C4CCCC4)c3n2)CC1 (stereo not shown)    1.14

What measured Relative caspase-3/7 activity in PLC/PRF/5 cell line goes with NC1CCC(Nc2nc(NCc3ccc(-n4cccn4)cc3)c3ncn(C4CCCC4)c3n2)CC1 (stereo not shown) ? 2.59

Try NC1CCC(Nc2nc(NCc3ccc(-c4ccsc4)cc3)c3ncn(C4CCCC4)c3n2)CC1 (stereo not shown) next. 1.07

====

Test system: caspase-3/7 activity in Hep3B cell line
Assay: One-step cellular caspase-3/7 activity assay
Type: cell-based, human
Settings: 200 nM, 24 hours; 0 nM = 1.00
Entries and their Relative caspase-3/7 activity in Hep3B cell line values follow.
Enter a number only.

Worked examples follow.
NC1CCC(Nc2nc(NCc3ccc(-c4cccc(F)c4)nc3)c3ncn(C4CCCC4)c3n2)CC1 (centres unmarked) [BP19]    4.82
COc1ccccc1-c1ccc(CNc2nc(NC3CCC(N)CC3)nc3c2ncn3C2CCCC2)cn1 (centres unmarked) [BP18]    0.89
Nc1ccccc1-c1ccc(CNc2nc(NC3CCC(N)CC3)nc3c2ncn3C2CCCC2)cc1 (centres unmarked) [BP32]    0.70
NC1CCC(Nc2nc(NCc3ccc(-c4ccccc4O)nc3)c3ncn(C4CCCC4)c3n2)CC1 (centres unmarked) [BP20]    5.37
OC1CCC(Nc2nc(NCc3ccc(-c4ccco4)nc3)c3ncn(C4CCCC4)c3n2)CC1 (centres unmarked) [BP21]    1.15

Please report the recorded Relative caspase-3/7 activity in Hep3B cell line for NC1CCC(Nc2nc(NCc3ccc(-n4cccn4)cc3)c3ncn(C4CCCC4)c3n2)CC1 (centres unmarked) [BP24] . 6.18

Do the same for NC1CCC(Nc2nc(NCc3ccc(-c4cccs4)cc3)c3ncn(C4CCCC4)c3n2)CC1 (centres unmarked) [BP2] please 1.09

Input Nc1ccccc1-c1ccc(CNc2nc(NC3CCC(N)CC3)nc3c2ncn3C2CCCC2)cn1 (centres unmarked) [BP22] 0.81
